Recorded IC50, one value per entry.
# target-or-test-system: erythrocyte AChE (Homo sapiens)
# Sequence (P22303 32-617 isoform P22303-2 limits assumed): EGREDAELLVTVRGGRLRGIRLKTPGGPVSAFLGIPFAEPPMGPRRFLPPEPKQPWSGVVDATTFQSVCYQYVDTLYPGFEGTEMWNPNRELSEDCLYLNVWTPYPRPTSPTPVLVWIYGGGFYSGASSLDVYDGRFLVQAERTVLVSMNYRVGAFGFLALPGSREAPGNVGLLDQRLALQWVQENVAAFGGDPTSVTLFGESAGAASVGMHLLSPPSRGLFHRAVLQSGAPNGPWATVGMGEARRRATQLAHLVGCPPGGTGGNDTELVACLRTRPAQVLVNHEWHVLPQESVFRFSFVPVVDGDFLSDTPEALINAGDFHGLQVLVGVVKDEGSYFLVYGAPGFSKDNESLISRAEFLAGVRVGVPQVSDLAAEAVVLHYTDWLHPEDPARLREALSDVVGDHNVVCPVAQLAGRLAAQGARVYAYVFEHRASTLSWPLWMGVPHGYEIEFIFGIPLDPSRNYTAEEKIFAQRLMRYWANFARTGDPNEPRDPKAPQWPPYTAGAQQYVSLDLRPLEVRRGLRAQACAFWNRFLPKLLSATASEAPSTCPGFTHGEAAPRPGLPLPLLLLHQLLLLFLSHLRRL
# procedure-summary: biochemical
# Format: biochemical
# Parameters: from tissue; host or cells: human whole peripheral blood (erythrocytes), K2EDTA anticoagulant
property-name: IC50 (µM)

{"molecule": "CCCSP(=O)(OCC)Oc1ccc(Br)cc1Cl (centres unmarked) [profenofos]", "property-name": "IC50", "units-label": "µM", "numeric-readout": 94.5}
{"molecule": "CCOP(=O)(OCC)Oc1cc(C)nc(C(C)C)n1 [diazoxon]", "property-name": "IC50", "units-label": "µM", "numeric-readout": 1.82}
